Origin of measurements: BindingDB's records for PubMed 995128

# collection of Ki values tested on D(2) dopamine receptor (Bos taurus, UniProt P20288)
# Sequence (P20288 whole entry): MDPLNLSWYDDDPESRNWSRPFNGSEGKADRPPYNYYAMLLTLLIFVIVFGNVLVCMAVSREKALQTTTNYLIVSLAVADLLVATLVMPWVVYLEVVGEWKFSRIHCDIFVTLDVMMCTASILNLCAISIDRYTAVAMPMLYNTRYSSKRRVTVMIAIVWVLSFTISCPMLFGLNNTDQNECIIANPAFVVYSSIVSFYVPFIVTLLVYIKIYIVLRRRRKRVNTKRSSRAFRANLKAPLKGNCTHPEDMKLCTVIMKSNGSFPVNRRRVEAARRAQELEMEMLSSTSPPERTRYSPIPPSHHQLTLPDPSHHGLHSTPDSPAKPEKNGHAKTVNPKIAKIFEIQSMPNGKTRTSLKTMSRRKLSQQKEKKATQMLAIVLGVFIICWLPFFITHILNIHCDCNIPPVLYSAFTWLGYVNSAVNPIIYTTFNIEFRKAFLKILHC

{"Molecule": "OCCN1CCN(CCC=C2c3ccccc3Sc3ccc(Cl)cc32)CC1 [NSC_12454]", "Ki, nM": 88}
{"Molecule": "OCCN1CCN(CCCC2c3ccc(F)cc3Sc3ccc(C(F)(F)F)cc32)CC1 (configuration not stated) [NSC_68751]", "Ki, nM": 2.6}
{"Molecule": "O=C(CCCN1CCC(O)(c2ccc(Cl)c(C(F)(F)F)c2)CC1)c1ccc(F)cc1 [CAS_10457-91-7]", "Ki, nM": 0.5}
{"Molecule": "CC[C@@H](CO)NC(=O)[C@@H]1C=C2c3cccc4c3c(cn4C)C[C@H]2N(C)C1", "Ki, nM": 160}
{"Molecule": "CC(C)C[C@H]1C(=O)N2CCCC2[C@]2(O)O[C@](NC(=O)[C@@H]3C=C4c5cccc6[nH]cc(c56)CC4N(C)C3)(C(C)C)C(=O)N12 (stereo partly drawn) [ALPHA-ERGOCRYPTINE]", "Ki, nM": 1.3}
{"Molecule": "CN(C)CCCN1c2ccccc2Sc2ccc(C(F)(F)F)cc21 [TRIFLUPROMAZINE]", "Ki, nM": 2.1}
{"Molecule": "COc1ccc2c(c1O)-c1c3c(cc4c1[C@H](C2)N(C)CC4)OCO3", "Ki, nM": 930}
{"Molecule": "O=C(CCCN1CC=C(n2c(=O)[nH]c3ccccc32)CC1)c1ccc(F)cc1", "Ki, nM": 1}
{"Molecule": "O=C(CCCN1CCC(O)(c2ccc(Br)cc2)CC1)c1ccc(F)cc1 [BROMPERIDOL]", "Ki, nM": 1.4}
{"Molecule": "OCCC1CCN(CCC=C2c3ccc(F)cc3Sc3ccc(C(F)(F)F)cc32)CC1 [CAS_60197-32-2]", "Ki, nM": 0.9}
{"Molecule": "O=C(CCCN1CCC(n2c(O)nc3ccccc32)CC1)c1ccc(F)cc1 [CAS_2062-84-2]", "Ki, nM": 0.33}
{"Molecule": "CN(C)CCCN1c2ccccc2Sc2ccccc21", "Ki, nM": 72}
{"Molecule": "CCN(CC)C(=O)[C@@H]1C=C2c3cccc4[nH]c(Br)c(c34)C[C@H]2N(C)C1 [LSD,2-Bromo]", "Ki, nM": 4}
{"Molecule": "CC(C)C[C@H]1C(=O)N2CCC[C@H]2[C@]2(O)O[C@](NC(=O)[C@@H]3C=C4c5cccc6[nH]c(Br)c(c56)C[C@H]4N(C)C3)(C(C)C)C(=O)N12 [Bromocriptine+ (GTP+)]", "Ki, nM": 2.5}
{"Molecule": "CN1CCN2c3ccccc3Cc3ccccc3[C@H]2C1 [MIANSERIN (+)]", "Ki, nM": 620}
{"Molecule": "CNCCc1ccc(O)c(O)c1 [CAS_62-32-8]", "Ki, nM": 530}
{"Molecule": "NC1CCc2cc(O)c(O)cc2C1 (configuration not stated)", "Ki, nM": 120}
{"Molecule": "CCC(=O)C(CC(C)N(C)C)(c1ccccc1)c1ccccc1 (configuration not stated) [CAS_5967-73-7]", "Ki, nM": 2700}
{"Molecule": "CN(C)CC/C=C1\\c2ccccc2Sc2ccc(Cl)cc21", "Ki, nM": 4.4}
{"Molecule": "CN1C[C@H](C(=O)N[C@]2(C)O[C@@]3(O)[C@@H]4CCCN4C(=O)[C@H](Cc4ccccc4)N3C2=O)C=C2c3cccc4[nH]cc(c34)C[C@H]21", "Ki, nM": 1.8}
{"Molecule": "CN1CCN(CCCN2c3ccccc3Sc3ccc(C(F)(F)F)cc32)CC1", "Ki, nM": 2.1}
{"Molecule": "CC(C)[C@@]1(NC(=O)[C@@H]2C=C3c4cccc5[nH]cc(c45)C[C@H]3N(C)C2)O[C@@]2(O)[C@@H]3CCCN3C(=O)[C@H](Cc3ccccc3)N2C1=O [SMR000058447]", "Ki, nM": 1.4}
{"Molecule": "CC(C)=CCN1CC[C@@]2(C)c3cc(O)ccc3C[C@@H]1[C@@H]2C [Talwin]", "Ki, nM": 3500}
{"Molecule": "CC(C)[C@H]1C(=O)N2CCC[C@H]2[C@]2(O)O[C@](NC(=O)[C@@H]3C=C4c5cccc6[nH]cc(c56)C[C@H]4N(C)C3)(C(C)C)C(=O)N12 [ERGOCORNINE]", "Ki, nM": 0.7}
{"Molecule": "CSc1ccc2c(c1)C(N1CCN(C)CC1)Cc1ccccc1S2 (configuration not stated)", "Ki, nM": 1.4}
{"Molecule": "O=C(CCC(F)N1CCC(O)(c2cccc(C(F)(F)F)c2)CC1)c1ccccc1 (configuration not stated) [CAS_749-13-3]", "Ki, nM": 0.95}
{"Molecule": "CC(COc1ccccc1)N(CCCl)Cc1ccccc1 (configuration not stated)", "Ki, nM": 140}

* * *

Each item that follows carries a reported pKi.
target: D(1A) dopamine receptor (Bos taurus, UniProt Q95136)
Sequence (Q95136 whole entry): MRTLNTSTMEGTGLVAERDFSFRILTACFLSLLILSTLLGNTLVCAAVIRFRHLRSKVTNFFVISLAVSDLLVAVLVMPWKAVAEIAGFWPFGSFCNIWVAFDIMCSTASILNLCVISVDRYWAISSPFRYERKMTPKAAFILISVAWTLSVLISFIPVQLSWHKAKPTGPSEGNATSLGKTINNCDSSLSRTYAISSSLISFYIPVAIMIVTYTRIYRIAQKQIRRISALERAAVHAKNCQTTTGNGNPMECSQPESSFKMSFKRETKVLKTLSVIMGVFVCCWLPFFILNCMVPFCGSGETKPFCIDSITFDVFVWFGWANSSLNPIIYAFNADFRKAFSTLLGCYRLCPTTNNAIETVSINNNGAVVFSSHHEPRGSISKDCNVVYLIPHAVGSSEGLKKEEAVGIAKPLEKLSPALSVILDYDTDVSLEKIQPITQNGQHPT
pKi: −log10 of the molar value.
Property Name: pKi

{"Compound": "CCC(=O)C(CC(C)N(C)C)(c1ccccc1)c1ccccc1 (stereo unspecified) [CAS_5967-73-7]", "Property Name": "pKi", "Modifier": "<", "Reading": 5.00}
{"Compound": "CSc1ccc2c(c1)C(N1CCN(C)CC1)Cc1ccccc1S2 (stereo unspecified)", "Property Name": "pKi", "Modifier": "=", "Reading": 6.68}
{"Compound": "O=C(CCCN1CCC(O)(c2ccc(Br)cc2)CC1)c1ccc(F)cc1 [BROMPERIDOL]", "Property Name": "pKi", "Modifier": "=", "Reading": 6.22}
{"Compound": "CNCCc1ccc(O)c(O)c1 [CAS_62-32-8]", "Property Name": "pKi", "Modifier": "=", "Reading": 7.64}
{"Compound": "O=C(CCCN1CCN(c2ccccn2)CC1)c1ccc(F)cc1", "Property Name": "pKi", "Modifier": "=", "Reading": 5.77}
{"Compound": "COc1ccccc1N1CCN(CCCC(=O)c2ccc(F)cc2)CC1 [Fluanisone]", "Property Name": "pKi", "Modifier": "=", "Reading": 6.10}
{"Compound": "CC(C)=CCN1CC[C@@]2(C)c3cc(O)ccc3C[C@@H]1[C@@H]2C [Talwin]", "Property Name": "pKi", "Modifier": "<", "Reading": 5.00}
{"Compound": "CC(C)NC(=O)C1C=C2c3cccc4[nH]cc(c34)CC2N(C)C1 (stereo unspecified) [CAS_60-79-7]", "Property Name": "pKi", "Modifier": "=", "Reading": 7.21}
{"Compound": "CN(C)CCCN1c2ccccc2Sc2ccccc21", "Property Name": "pKi", "Modifier": "=", "Reading": 5.15}
{"Compound": "CC[C@@H](CO)NC(=O)[C@@H]1C=C2c3cccc4c3c(cn4C)C[C@H]2N(C)C1", "Property Name": "pKi", "Modifier": "=", "Reading": 6.54}
{"Compound": "CCN(CC)C(=O)[C@@H]1C=C2c3cccc4[nH]c(Br)c(c34)C[C@H]2N(C)C1 [LSD,2-Bromo]", "Property Name": "pKi", "Modifier": "=", "Reading": 7.27}
{"Compound": "CC(C)C[C@H]1C(=O)N2CCCC2[C@]2(O)O[C@](NC(=O)[C@@H]3C=C4c5cccc6[nH]cc(c56)CC4N(C)C3)(C(C)C)C(=O)N12 (stereo partly drawn) [ALPHA-ERGOCRYPTINE]", "Property Name": "pKi", "Modifier": "=", "Reading": 7.16}
{"Compound": "COc1ccc2c(c1O)-c1c3c(cc4c1[C@H](C2)N(C)CC4)OCO3", "Property Name": "pKi", "Modifier": "=", "Reading": 6.10}
{"Compound": "CCc1c(C)[nH]c2c1C(=O)C(CN1CCOCC1)CC2 (stereo unspecified) [Moban]", "Property Name": "pKi", "Modifier": "<", "Reading": 5.00}
{"Compound": "O=C(CCC(F)N1CCC(O)(c2cccc(C(F)(F)F)c2)CC1)c1ccccc1 (stereo unspecified) [CAS_749-13-3]", "Property Name": "pKi", "Modifier": "=", "Reading": 6.13}
{"Compound": "CN1CCN2c3ccccc3Cc3ccccc3[C@H]2C1 [MIANSERIN (+)]", "Property Name": "pKi", "Modifier": "=", "Reading": 5.60}
{"Compound": "CN1C[C@H](C(=O)N[C@]2(C)O[C@@]3(O)[C@@H]4CCCN4C(=O)[C@H](Cc4ccccc4)N3C2=O)C=C2c3cccc4[nH]cc(c34)C[C@H]21", "Property Name": "pKi", "Modifier": "=", "Reading": 7.52}
{"Compound": "O=C1NCN(c2ccccc2)C12CCN(CCCC(c1ccc(F)cc1)c1ccc(F)cc1)CC2", "Property Name": "pKi", "Modifier": "=", "Reading": 5.85}
{"Compound": "CN(C)CC/C=C1\\c2ccccc2Sc2ccc(Cl)cc21", "Property Name": "pKi", "Modifier": "=", "Reading": 6.60}
{"Compound": "O=C(CCCN1CCC(n2c(O)nc3ccccc32)CC1)c1ccc(F)cc1 [CAS_2062-84-2]", "Property Name": "pKi", "Modifier": "=", "Reading": 5.39}
{"Compound": "CC(COc1ccccc1)N(CCCl)Cc1ccccc1 (stereo unspecified)", "Property Name": "pKi", "Modifier": "<", "Reading": 5.00}
